- run_description: qHTS for differential inhibitors of proliferation of Plasmodium falciparum line GB4 (AID 1816);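 further: parasite growth measured after 72 h incubation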; further: potency means the concentration at half of the fitted maximal effect
- test_conditions: Plasmodium falciparum GB4 proliferation inhibition; series mostly up to 28.7 µM
Records with an inconclusive call do not appear. Active and inactive are the calls of the source. The call rests on the fitted dose curve; in most records, active means well fitted curve in the direction sought with a large enough effect; inconclusive means small, poorly fitted or top-dose-only effect, or another doubt; inactive means no such curve, though single readings can be large or run the other way.
parameter: Potency

Consider the reported Potency for these molecules:
molecule="CN=C(NC#N)Nc1ccc(C2=NNC(=O)CC2C)cc1 (stereo not given)" experimental_value=inactive
molecule="CC(CCc1ccccc1)NCC(O)c1ccc(O)c(C(N)=O)c1 (stereo not given)" experimental_value="10 µM (active)"
molecule=CC(C)COC(=O)OCN1C(=O)CN(CCN2CC(=O)N(COC(=O)OCC(C)C)C(=O)C2)CC1=O experimental_value=inactive
molecule=CCCn1c(=O)[nH]c(=O)c2[nH]cnc21 experimental_value=inactive
molecule=N[C@@H](Cc1cnc[nH]1)C(=O)O experimental_value=inactive
molecule=O=C(O)c1cc2cc(Cc3cccnc3)ccc2o1 experimental_value=inactive
molecule=O=C1CCC(c2ccc(-n3ccnc3)cc2)=NN1 experimental_value=inactive
molecule=COc1cc(NS(C)(=O)=O)ccc1Nc1c2ccccc2nc2ccccc12 experimental_value="0.891 µM (active)"
molecule=CC(C)NC[C@@H](O)COc1cccc2ccccc12 experimental_value="2.51 µM (active)"

Below: the item to evaluate.
Any idea what Potency was measured for `N[C@H](CO)C(=O)O` ?
inactive

###

- Tested on: CP269
- run_description: qHTS profiling for inhibitors of Plasmodium falciparum proliferation (AID 504749); further: nearly all actives have a fitted effect of over 60% in size
- test_conditions: P. falciparum in erythrocytes, SYBR Green DNA, 72 h; series mostly up to 28.7 µM
Records with an inconclusive call do not appear. Calls of active or inactive are those of the source. Calls follow the shape of the dose curve; as a rule, active = well fitted inhibition curve with a large enough effect; inconclusive = small, poorly fitted or top-dose-only effect; inactive = flat fitted curve, though single readings scatter.
Please state which outcome applies, choosing from yes (active), no (inactive)

compound=Oc1ccc(Cl)cc1Sc1cc(Cl)ccc1O class_assignment=no

Per the records of this test, what outcome belongs to `O=C(Nc1ccc(Cl)c(Cl)c1)C1CC1` ?
no

Per the records of this test, what outcome belongs to `Cc1cc(O)c(C(C)C)cc1Cl` ?
no

Per the records of this test, what outcome belongs to CC(O)C(=O)O (stereo not drawn) ?
no

Per the records of this test, what outcome belongs to `NCCC(O)(P(=O)(O)O)P(=O)(O)O` ?
no

Per the records of this test, what outcome belongs to `CC(=O)N(O)CCCCCNC(=O)CCC(=O)N(O)CCCCCNC(=O)CCC(=O)N(O)CCCCCN` ?
no

Per the records of this test, what outcome belongs to `CCCCCCC[N+](CC)(CC)CCCCc1ccc(Cl)cc1` ?
yes

Per the records of this test, what outcome belongs to COc1cc2c(cc1OC)C(=O)C(CC1CCN(Cc3ccccc3)CC1)C2 (stereo not drawn) ?
no

Per the records of this test, what outcome belongs to `Cc1c(C(C)C)c(=O)n(-c2ccccc2)n1C` ?
no

###

- run_description: Cell Viability - LYMP2-021 (AID 974);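 further: compound exposure lasts 24 hours at 37 °C; nearly all actives have a fitted effect of over 55% in size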
- test_conditions: LYMP2-021 lymphoblastoid cells viability; series mostly up to 92.2 µM
Records with an inconclusive call do not appear. Activity calls are given as the source filed them. Calls follow the shape of the dose curve; as a rule, active = well fitted cell-killing curve with a large enough effect; inconclusive = small, poorly fitted or top-dose-only effect; inactive = flat fitted curve, though single readings scatter.
Please state which outcome applies, choosing from TRUE (active), FALSE (inactive)

smiles_repr=COC1=CC(=O)C[C@@H](C)[C@]12Oc1c(Cl)c(OC)cc(OC)c1C2=O class_assignment=FALSE
smiles_repr=COc1cccc2c1C(=O)c1c(O)c3c(c(O)c1C2=O)C[C@@](O)(C(=O)CO)C[C@@H]3O[C@H]1C[C@H](N)[C@H](O)[C@H](C)O1 class_assignment=TRUE

Now look at this entry.
Per the records of this test, what outcome belongs to `C=CCc1ccc(O)c(OC)c1` ?
FALSE

###

- Tested on: astro
- run_description: Drug repurposing screens with cells derived from glioblastoma tumor samples (AID 1345199); further: nearly all actives have a fitted effect of over 40% in size
- test_conditions: viability, ATP luminescence, 48 h; series mostly up to 45.9 µM
Results filed as inconclusive are left out. Active and inactive are the calls of the source. Calls follow the shape of the dose curve; as a rule, active = well fitted inhibition curve with a large enough effect; inconclusive = small, poorly fitted or top-dose-only effect; inactive = flat fitted curve, though single readings scatter.
Please state which outcome applies, choosing from 1 for active, 0 for inactive

compound=NC(=O)CC[C@@H]1NC(=O)[C@H](Cc2ccccc2)NC(=O)[C@H](Cc2ccc(O)cc2)NC(=O)CCSSC[C@@H](C(=O)N2CCC[C@H]2C(=O)N[C@@H](CCCN=C(N)N)C(=O)NCC(N)=O)NC(=O)[C@H](CC(N)=O)NC1=O tested_target=astro class_assignment=0
compound=CC(C)COC(=O)c1ccc(N)cc1 tested_target=astro class_assignment=0
compound="CCC(C(=O)OCCN(CC)CC)c1ccccc1 (configuration not stated)" tested_target=astro class_assignment=0
compound="Cc1ccc(C(=O)C(C)CN2CCCCC2)cc1 (configuration not stated)" tested_target=astro class_assignment=0
compound=Cc1onc(-c2c(Cl)cccc2Cl)c1C(=O)N[C@@H]1C(=O)N2[C@@H]1SC(C)(C)[C@@H]2C(=O)O tested_target=astro class_assignment=0

Per the records of this test, what outcome belongs to `O=C(O)CNC(=O)c1ccccc1` ?
0

Per the records of this test, what outcome belongs to `NC(CO)(CO)CO` ?
0

Per the records of this test, what outcome belongs to `CC(=O)O[C@H]1C[C@@H]2CC[C@@H]3[C@H](CC[C@@]4(C)[C@H]3C[C@H]([N+]3(C)CCCCC3)[C@@H]4OC(C)=O)[C@@]2(C)C[C@@H]1[N+]1(C)CCCCC1` ?
0

Per the records of this test, what outcome belongs to `COC(=O)[C@H]1[C@H]2C[C@H]3c4[nH]c5ccccc5c4CCN3C[C@H]2CC[C@@H]1O` ?
0

Per the records of this test, what outcome belongs to `CN(C)CC/C=C1/c2ccccc2COc2ccc(CC(=O)O)cc21` ?
0

Per the records of this test, what outcome belongs to `CCOC(=O)n1ccn(C)c1=S` ?
0

Per the records of this test, what outcome belongs to `CCCCOc1ccc(OCCCN2CCOCC2)cc1` ?
0

Per the records of this test, what outcome belongs to `Cc1c(C(N)=O)cc([N+](=O)[O-])cc1[N+](=O)[O-]` ?
0

Per the records of this test, what outcome belongs to `COc1cc(C=C2CCC/C(=C\c3ccc(O)c(OC)c3)C2=O)ccc1O` ?
1

Per the records of this test, what outcome belongs to `Cc1ccnc(NS(=O)(=O)c2ccc(N)cc2)n1` ?
0

Per the records of this test, what outcome belongs to `C[C@@H]1CN(CCCn2c3ccccc3c3ccccc32)C[C@H](C)N1` ?
1

Per the records of this test, what outcome belongs to `O=c1ccc2ccccc2o1` ?
0

Per the records of this test, what outcome belongs to `CCCn1c(=O)[nH]c(=O)c2[nH]cnc21` ?
0

Per the records of this test, what outcome belongs to `C[C@]12C=CC(=O)C=C1[C@@H](F)C[C@@H]1[C@@H]2[C@@H](O)C[C@@]2(C)[C@H]1CC[C@]2(O)C(=O)CO` ?
0

Per the records of this test, what outcome belongs to `CN(C(=O)CN(CCO)CC(=O)N(C)C(C)(C)Cc1ccccc1)C(C)(C)Cc1ccccc1` ?
0

Per the records of this test, what outcome belongs to `Cc1cccn2c(=O)c(-c3nnn[nH]3)cnc12` ?
0

Per the records of this test, what outcome belongs to `O=C(O)CCCCC(=O)O` ?
0

###

- Test system: CP286
- run_description: qHTS profiling for inhibitors of Plasmodium falciparum proliferation (AID 504749); further: nearly all actives have a fitted effect of over 60% in size
- test_conditions: P. falciparum in erythrocytes, SYBR Green DNA, 72 h; series mostly up to 28.7 µM
- Protocol: NIH National Institute of Allergy and Infectious Diseases [NIAID] NIH Chemical Genomics Center [NCGC] […] Because mature erythrocytes lack DNA, only Plasmodium-derived DNA is detected. NCGC Assay Protocol Summary: The SYBR Green viability assay was adapted from a method described previously (Plouffe et al., 2008). […] The following morning, fluorescence intensity at 485(14) nm excitation and 535(25) nm emission wavelengths was measured on an EnVision (Perkin Elmer) plate reader. […]
Inconclusive results are not listed. Active and inactive are the calls of the source. Calls come from the whole dose curve; as a rule, active = well fitted inhibition curve with a large enough effect; inconclusive = small, poorly fitted or top-dose-only effect; inactive = flat fitted curve, though single readings scatter.
Please state which outcome applies, choosing from active, inactive

Worked examples, 7 compounds total:
smiles_repr=Oc1c(I)cc(Cl)c2cccnc12 class_assignment=inactive
smiles_repr=O=C1CCC(c2ccc(-n3ccnc3)cc2)=NN1 class_assignment=inactive
smiles_repr=CN(C)C(=S)SC(=S)N(C)C class_assignment=active
smiles_repr=COc1ccc(CN2CCN(C(c3ccc(F)cc3)c3ccc(F)cc3)CC2)c(OC)c1OC class_assignment=active
smiles_repr=COc1ccc(CCN2CCC(Nc3nc4ccccc4n3Cc3ccc(F)cc3)CC2)cc1 class_assignment=active
smiles_repr=O=C1[C@H]2CCCC[C@H]2C(=O)N1CCCCN1CCN(c2nsc3ccccc23)CC1 class_assignment=inactive
smiles_repr=C[C@@H](CN(C)C)CN1c2ccccc2Sc2ccccc21 class_assignment=inactive

Now look at this entry.
Per the records of this test, what outcome belongs to `C[C@]12CC[C@@H]3c4ccc(O)cc4CC[C@H]3[C@@H]1CC[C@@H]2O` ?
inactive
